METHOD_NOTES: Biodistribution in EMT-6 BALB/C mice
Type: in vivo
ASSAY_CONDITIONS: Balb/c, mouse, intravenous; spleen, 30 min; read-out: % ID per gram spleen
VALUE_TYPE: tissue uptake at 30 min (%ID/g)
Quick note: give the figure in %ID/g, leave out the unit.

// field: tissue uptake at 30 min; key: COc1cc2c(cc1OC)CN(CCCCNC(=O)c1cc([76Br])cc(OC)c1OC)CC2 [[^76Br]6] ; value = 6.91

* * *

Below is a list of entries, each paired with its recorded % ID per gram muscle value.
Tested on: EMT-6 mammary tumors
METHOD_NOTES: Biodistribution in EMT-6 BALB/C mice
Format: in vivo
ASSAY_CONDITIONS: muscle, 30 min
Source text: As used herein, the term “tumor:background ratio” (i.e., tumor:fat ratio, tumor:muscle ratio, tumor:lung ratio, tumor:blood ratio) refers to the % injected dose/g tissue of the radiotracer in the tumor divided by the % injected dose/g […] in the background tissue (i.e., fat, muscle, lung, blood). B. Biodistribution Studies of ^11C analogs in Tumor-Bearing Mice. […]
Quick note: give the figure in % ID per gram, leave out the unit.

EMT-6 mammary tumors % ID per gram muscle of COc1cc2c(cc1OC)CN(CCNC(=O)c1cc([125I])ccc1OC)CC2 [[^125I]8i] is 0.70

EMT-6 mammary tumors % ID per gram muscle of COc1cc2c(cc1OC)CN(CCCCNC(=O)c1cc([76Br])cc(OC)c1OC)CC2 [[^76Br]6] is 1.54

EMT-6 mammary tumors % ID per gram muscle of COc1cc2c(cc1OC)CN(CCCCNC(=O)c1cc(C)cc(OC)c1O[11CH3])CC2 [[^11C]10] is 0.75

---
EMT-6 mammary tumors % ID per gram muscle of COc1cc2c(cc1OC)CN(CCCCNC(=O)c1cc([125I])cc(OC)c1OC)CC2 [[^125I]6i] is 1.21

EMT-6 mammary tumors % ID per gram muscle of COc1cc2c(cc1OC)CN(CCCCNC(=O)c1cc(Br)cc(OC)c1O[11CH3])CC2 [[^11C]6] is 1.67

EMT-6 mammary tumors % ID per gram muscle of COc1cc2c(cc1OC)CN(CCNC(=O)c1cc(C)ccc1O[11CH3])CC2 [[^11C]9] is 0.56

* * *

Below is a list of entries, each paired with its recorded ratio Tumor:muscle value.
System: EMT-6 mammary tumors
METHOD_NOTES: Biodistribution in EMT-6 BALB/C mice
Assay type: in vivo
ASSAY_CONDITIONS: 1 hour
// return just the number, without any unit appended

// field: ratio Tumor:muscle; key: COc1cc2c(cc1OC)CN(CCCCNC(=O)c1cc([125I])cc(OC)c1OC)CC2 [[^125I]6i] ; value = 4.26

// field: ratio Tumor:muscle; key: COc1cc2c(cc1OC)CN(CCCCNC(=O)c1cc(C)cc(OC)c1O[11CH3])CC2 [[^11C]10] ; value = 2.78

* * *

System: EMT-6 mammary tumors
METHOD_NOTES: Biodistribution in EMT-6 BALB/C mice
Format: in vivo
ASSAY_CONDITIONS: 5 min
Simple rule here: ratio Tumor:fat less than 2 is yes, otherwise no.

Is the reported ratio Tumor:fat for COc1cc2c(cc1OC)CN(CCCCNC(=O)c1cc([76Br])cc(OC)c1OC)CC2 [[^76Br]6] strictly below 2? yes

Is the reported ratio Tumor:fat for COc1cc2c(cc1OC)CN(CCCCNC(=O)c1cc(Br)cc(OC)c1O[11CH3])CC2 [[^11C]6] strictly below 2? yes

Is the reported ratio Tumor:fat for COc1cc2c(cc1OC)CN(CCNC(=O)c1cc([125I])ccc1OC)CC2 [[^125I]8i] strictly below 2? yes

---
Is the reported ratio Tumor:fat for COc1cc2c(cc1OC)CN(CCCCNC(=O)c1cc(C)cc(OC)c1O[11CH3])CC2 [[^11C]10] strictly below 2? no

Is the reported ratio Tumor:fat for COc1cc2c(cc1OC)CN(CCCCNC(=O)c1cc([125I])cc(OC)c1OC)CC2 [[^125I]6i] strictly below 2? yes
